B1: library; a variant is named by its letters at N, in order (parent)
chain: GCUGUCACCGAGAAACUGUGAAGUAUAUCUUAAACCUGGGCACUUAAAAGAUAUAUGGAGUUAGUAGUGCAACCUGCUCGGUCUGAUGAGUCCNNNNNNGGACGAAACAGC

Variants of: B1
Experiment: FACS-Seq fitted mean relative fluorescence mCherry/BFP with ligand (log10 relative fluorescence); HEK293T; ligand: cyclic di-GMP (c-di-GMP-II aptamer); ligand concentration (+) FACS-Seq: 1 mM; higher = higher reporter protein expression
Conditions: ligand present: yes
Threshold check on FACS-Seq fitted mean (log10): at or above -0.3 gives Criterion met, strictly below gives Criterion not met.

>  <Mutant label>
GGGGGC

>  <Category label>
Criterion not met

$$$$
>  <Mutant label>
AUACAA

>  <Category label>
Criterion met

$$$$
>  <Mutant label>
CCACUU

>  <Category label>
Criterion met

$$$$
>  <Mutant label>
UCUGUA

>  <Category label>
Criterion met

$$$$
>  <Mutant label>
CGUGCG

>  <Category label>
Criterion not met

$$$$
>  <Mutant label>
AACAUG

>  <Category label>
Criterion met

$$$$
>  <Mutant label>
GCAGCU

>  <Category label>
Criterion met

$$$$
>  <Mutant label>
GAAUGG

>  <Category label>
Criterion met

$$$$
>  <Mutant label>
UACGUG

>  <Category label>
Criterion not met

$$$$
>  <Mutant label>
UUGAUG

>  <Category label>
Criterion not met

$$$$
>  <Mutant label>
AACAAG

>  <Category label>
Criterion met

$$$$
>  <Mutant label>
GAAGAA

>  <Category label>
Criterion met

$$$$
>  <Mutant label>
CAGCUA

>  <Category label>
Criterion met

$$$$
>  <Mutant label>
AAUUAA

>  <Category label>
Criterion met

$$$$
>  <Mutant label>
GAAAUG

>  <Category label>
Criterion met

$$$$
>  <Mutant label>
AACGAG

>  <Category label>
Criterion not met

$$$$
>  <Mutant label>
GCUAAU

>  <Category label>
Criterion met

$$$$
>  <Mutant label>
UACCCA

>  <Category label>
Criterion met

$$$$
>  <Mutant label>
CGGCUA

>  <Category label>
Criterion not met

$$$$
>  <Mutant label>
CAGUUA

>  <Category label>
Criterion not met

$$$$
>  <Mutant label>
CCAGAC

>  <Category label>
Criterion met

$$$$
>  <Mutant label>
ACACGG

>  <Category label>
Criterion met

$$$$
>  <Mutant label>
CAGACA

>  <Category label>
Criterion not met

$$$$
>  <Mutant label>
AUGGUA

>  <Category label>
Criterion met

$$$$
>  <Mutant label>
AGGAAU

>  <Category label>
Criterion met

$$$$
>  <Mutant label>
AGUUUA

>  <Category label>
Criterion met

$$$$
>  <Mutant label>
GUGUUC

>  <Category label>
Criterion not met

$$$$
>  <Mutant label>
AACCCU

>  <Category label>
Criterion met

$$$$
>  <Mutant label>
CAUCGA

>  <Category label>
Criterion met

$$$$
>  <Mutant label>
CAAUGU

>  <Category label>
Criterion met

$$$$
>  <Mutant label>
AGCGGU

>  <Category label>
Criterion met

$$$$
>  <Mutant label>
GAAGUU

>  <Category label>
Criterion met

$$$$
>  <Mutant label>
GCCGAA

>  <Category label>
Criterion met

$$$$
>  <Mutant label>
CCCCUA

>  <Category label>
Criterion met

$$$$
>  <Mutant label>
UAGUUU

>  <Category label>
Criterion met

$$$$
